- protocol.summary: Oral bioavailability in rat at 5 mg/kg
- Assay type: ADME, organism-based
- run.conditions: in vivo
outcome.measure: bioavailability (%)
Express your answer in %, writing the number without its unit.

# bioavailability lookup, item CC1(C)NCCc2c1oc1cc(S(=O)(=O)c3cccc(F)c3)ccc21
15

# bioavailability lookup, item O=S(=O)(c1cccc(F)c1)c1ccc2c3c(oc2c1)C1(CCCOC1)NCC3 (stereo in doubt; 2)
36

# bioavailability lookup, item O=S(=O)(c1cccc(F)c1)c1ccc2c3c(oc2c1)C1(CCOCC1)NCC3
6

----------
- measurement.target: Voltage-gated inwardly rectifying potassium channel KCNH2 (Homo sapiens, UniProt Q12809)
- Sequence (Q12809 whole entry): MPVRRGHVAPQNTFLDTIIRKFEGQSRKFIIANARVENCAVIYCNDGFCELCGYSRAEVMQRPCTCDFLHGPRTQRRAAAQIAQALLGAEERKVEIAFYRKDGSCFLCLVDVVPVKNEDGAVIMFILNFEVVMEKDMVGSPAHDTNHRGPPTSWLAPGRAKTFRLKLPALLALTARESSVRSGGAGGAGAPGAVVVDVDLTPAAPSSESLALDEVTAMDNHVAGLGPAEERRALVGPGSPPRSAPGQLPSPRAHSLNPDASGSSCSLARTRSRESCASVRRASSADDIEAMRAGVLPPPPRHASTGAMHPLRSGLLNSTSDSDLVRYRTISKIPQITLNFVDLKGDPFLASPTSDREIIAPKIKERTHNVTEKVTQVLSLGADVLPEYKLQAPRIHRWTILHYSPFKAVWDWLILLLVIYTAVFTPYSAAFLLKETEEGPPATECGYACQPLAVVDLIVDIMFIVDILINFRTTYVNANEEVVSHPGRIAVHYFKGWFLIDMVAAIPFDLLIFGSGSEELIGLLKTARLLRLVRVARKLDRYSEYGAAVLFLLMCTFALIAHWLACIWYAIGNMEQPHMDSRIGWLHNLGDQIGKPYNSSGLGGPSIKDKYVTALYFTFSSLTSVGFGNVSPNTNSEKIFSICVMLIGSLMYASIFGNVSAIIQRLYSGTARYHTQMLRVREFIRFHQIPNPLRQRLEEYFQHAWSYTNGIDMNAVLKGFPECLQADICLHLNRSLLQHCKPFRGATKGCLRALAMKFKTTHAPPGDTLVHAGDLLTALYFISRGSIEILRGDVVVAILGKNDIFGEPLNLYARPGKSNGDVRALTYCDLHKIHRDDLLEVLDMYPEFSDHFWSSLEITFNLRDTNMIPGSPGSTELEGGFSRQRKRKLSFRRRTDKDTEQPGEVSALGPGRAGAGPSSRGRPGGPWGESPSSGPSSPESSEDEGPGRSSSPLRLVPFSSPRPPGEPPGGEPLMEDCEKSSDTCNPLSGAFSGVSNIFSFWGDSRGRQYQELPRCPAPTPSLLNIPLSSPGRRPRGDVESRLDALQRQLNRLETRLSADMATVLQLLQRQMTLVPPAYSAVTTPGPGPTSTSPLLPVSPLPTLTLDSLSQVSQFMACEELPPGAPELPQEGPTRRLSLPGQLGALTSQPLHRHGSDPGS
- protocol.summary: Inhibition of human ERG by patch express assay
Can you tell me IC50 for the items I'm about to list?
Express your answer in µM, writing the number without its unit.

# IC50 lookup, item O=S(=O)(c1cccc(F)c1)c1ccc2c3c(oc2c1)C1(CCCOC1)NCC3 (stereo in doubt; 3)
9.6

# IC50 lookup, item O=S(=O)(c1cccc(F)c1)c1ccc2c3c(oc2c1)C1(CCCOC1)NCC3 (racemic)
13.6

# IC50 lookup, item O=S(=O)(c1cccc(F)c1)c1ccc2c3c(oc2c1)C1(CCCOC1)NCC3 (stereo in doubt; 2)
12

----------
- measurement.target: Cytochrome P450 2D6 (Homo sapiens)
- Sequence (P10635 whole entry): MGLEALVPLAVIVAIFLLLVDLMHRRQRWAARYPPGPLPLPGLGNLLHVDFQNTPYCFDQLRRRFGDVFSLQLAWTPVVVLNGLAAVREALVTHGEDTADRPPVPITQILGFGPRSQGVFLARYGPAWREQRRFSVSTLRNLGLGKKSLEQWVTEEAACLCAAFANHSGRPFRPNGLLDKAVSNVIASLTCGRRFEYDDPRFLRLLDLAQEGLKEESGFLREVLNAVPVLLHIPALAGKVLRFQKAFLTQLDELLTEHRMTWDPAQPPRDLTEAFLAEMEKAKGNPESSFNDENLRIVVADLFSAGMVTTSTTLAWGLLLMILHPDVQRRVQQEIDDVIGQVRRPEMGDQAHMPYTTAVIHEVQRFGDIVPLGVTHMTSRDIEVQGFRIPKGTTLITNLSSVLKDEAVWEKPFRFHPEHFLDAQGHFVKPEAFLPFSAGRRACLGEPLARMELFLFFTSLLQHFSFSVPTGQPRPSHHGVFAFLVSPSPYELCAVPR
- protocol.summary: Inhibition of CYP2D6
- Format: ADME
outcome.measure: IC50

# IC50 lookup, item O=S(=O)(c1cccc(F)c1)c1ccc2c3c(oc2c1)C1(CCCOC1)NCC3 (stereo in doubt; 2)
> 30 µM

----------
Can you tell me AUC for the items I'm about to list?
- Tested on: Rattus norvegicus
- protocol.summary: AUC in rat at 5 mg/kg, po after 6 hrs
- Type: ADME, organism-based, Plasma
- Parameters: time < 6 hr, dose 5 mg/kg, route oral
- run.conditions: in vivo
Express your answer in ng·h/mL, writing the number without its unit.

# AUC lookup, item CC1(C)NCCc2c1oc1cc(S(=O)(=O)c3cccc(F)c3)ccc21
149

# AUC lookup, item O=S(=O)(c1cccc(F)c1)c1ccc2c3c(oc2c1)C1(CCCOC1)NCC3 (stereo in doubt; 2)
974

# AUC lookup, item O=S(=O)(c1cccc(F)c1)c1ccc2c3c(oc2c1)C1(CCOCC1)NCC3
368

----------
- measurement.target: Cytochrome P450 2C9 (Homo sapiens, UniProt P11712)
- Sequence (P11712 whole entry): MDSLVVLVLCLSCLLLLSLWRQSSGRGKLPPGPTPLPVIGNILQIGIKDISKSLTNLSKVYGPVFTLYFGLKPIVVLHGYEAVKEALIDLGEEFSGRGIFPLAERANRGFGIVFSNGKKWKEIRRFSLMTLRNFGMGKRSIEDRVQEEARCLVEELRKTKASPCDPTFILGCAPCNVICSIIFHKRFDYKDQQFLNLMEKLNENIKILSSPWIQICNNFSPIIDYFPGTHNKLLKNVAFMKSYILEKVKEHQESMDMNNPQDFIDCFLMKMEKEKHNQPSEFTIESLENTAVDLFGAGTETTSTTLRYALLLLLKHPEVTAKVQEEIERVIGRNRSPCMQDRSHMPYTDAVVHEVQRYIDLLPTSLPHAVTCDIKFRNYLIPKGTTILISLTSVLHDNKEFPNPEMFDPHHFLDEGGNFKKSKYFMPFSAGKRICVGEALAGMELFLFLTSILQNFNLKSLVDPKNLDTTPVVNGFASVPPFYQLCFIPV
- protocol.summary: Inhibition of CYP2C9
- Format: ADME
outcome.measure: IC50 (µM)
Express your answer in µM, writing the number without its unit.

# returns recorded IC50 (system: Cytochrome P450 2C9 (Homo sapiens, UniProt P11712)) for O=S(=O)(c1cccc(F)c1)c1ccc2c3c(oc2c1)C1(CCCOC1)NCC3 (stereo in doubt; 2)
1.9

----------
- protocol.summary: Dissociation constant, pKa of the compound
- Assay type: physicochemical
outcome.measure: pKa

# pKa lookup, item COCC1(C)NCCc2c1oc1cc(S(=O)(=O)c3cccc(F)c3)ccc21 (stereo unspecified)
7.5

# pKa lookup, item O=S(=O)(c1cccc(F)c1)c1ccc2c3c(oc2c1)C1(CCOC1)NCC3 (racemic)
7.5

# pKa lookup, item CC1(C(F)(F)F)NCCc2c1oc1cc(S(=O)(=O)c3cccc(F)c3)ccc21 (stereo unspecified)
5.7

# pKa lookup, item CC1(C(F)F)NCCc2c1oc1cc(S(=O)(=O)c3cccc(F)c3)ccc21 (stereo unspecified)
6.2

# pKa lookup, item O=S(=O)(c1cccc(F)c1)c1ccc2c3c(oc2c1)C1(CCCOC1)NCC3 (stereo in doubt; 3)
7.5

# pKa lookup, item O=S(=O)(c1cccc(F)c1)c1ccc2c3c(oc2c1)C1(CCOCC1)NCC3
7.4

----------
- protocol.summary: Ratio of drug level in brain to plasma in rat at 5 mg/kg, ip
- Type: ADME, organism-based
- Set-up: dose 5 mg/kg, route intraperitoneal
- run.conditions: read-out: BPR
Can you tell me Kp for the items I'm about to list?
Lab note: record just the number, no unit beside it.

# Kp lookup, item O=S(=O)(c1cccc(F)c1)c1ccc2c3c(oc2c1)C1(CCOCC1)NCC3
3.3

# Kp lookup, item CC1(C)NCCc2c1oc1cc(S(=O)(=O)c3cccc(F)c3)ccc21
7.7

# Kp lookup, item O=S(=O)(c1cccc(F)c1)c1ccc2c3c(oc2c1)C1(CCCOC1)NCC3 (stereo in doubt; 2)
2

----------
Can you tell me Drug uptake for the items I'm about to list?
- Tested on: Brain
- protocol.summary: Drug uptake in rat brain at 5 mg/kg, ip after 1 hr
- Assay type: ADME, organism-based
- Design: dose 5 mg/kg, route intraperitoneal
- run.conditions: in vivo
Express your answer in nmol/g, writing the number without its unit.

# returns recorded Drug uptake (system: Brain) for CC1(C)NCCc2c1oc1cc(S(=O)(=O)c3cccc(F)c3)ccc21
1620

# returns recorded Drug uptake (system: Brain) for O=S(=O)(c1cccc(F)c1)c1ccc2c3c(oc2c1)C1(CCOCC1)NCC3
979

# returns recorded Drug uptake (system: Brain) for O=S(=O)(c1cccc(F)c1)c1ccc2c3c(oc2c1)C1(CCCOC1)NCC3 (stereo in doubt; 2)
1660

----------
Can you tell me half-life for the items I'm about to list?
- protocol.summary: Half life in rat at 1 mg/kg, iv
- Type: ADME, organism-based
- Set-up: dose 1 mg/kg, route intravenous
- run.conditions: in vivo
Express your answer in min, writing the number without its unit.

# half-life lookup, item CC1(C)NCCc2c1oc1cc(S(=O)(=O)c3cccc(F)c3)ccc21
54

# half-life lookup, item O=S(=O)(c1cccc(F)c1)c1ccc2c3c(oc2c1)C1(CCOCC1)NCC3
54

# half-life lookup, item O=S(=O)(c1cccc(F)c1)c1ccc2c3c(oc2c1)C1(CCCOC1)NCC3 (stereo in doubt; 2)
84

----------
Can you tell me pKi for the items I'm about to list?
# pKi is unitless: minus log10 of the molar concentration; print number only

# returns recorded pKi (system: 5-hydroxytryptamine receptor 6 (Homo sapiens)) for O=S(=O)(c1cccc(F)c1)c1ccc2c3c(oc2c1)CNCC3
# Sequence (P50406 whole entry): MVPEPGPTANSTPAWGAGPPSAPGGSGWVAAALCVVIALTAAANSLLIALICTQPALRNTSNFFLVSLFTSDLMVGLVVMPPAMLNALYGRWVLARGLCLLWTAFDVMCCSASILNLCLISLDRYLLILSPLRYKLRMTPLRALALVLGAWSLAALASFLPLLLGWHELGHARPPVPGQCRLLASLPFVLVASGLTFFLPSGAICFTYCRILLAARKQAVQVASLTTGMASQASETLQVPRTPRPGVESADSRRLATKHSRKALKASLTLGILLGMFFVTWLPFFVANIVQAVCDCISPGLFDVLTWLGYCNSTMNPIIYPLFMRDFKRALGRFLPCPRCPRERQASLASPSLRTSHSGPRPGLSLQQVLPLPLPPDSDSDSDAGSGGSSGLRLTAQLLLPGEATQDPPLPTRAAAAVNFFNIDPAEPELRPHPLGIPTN
8.80

# returns recorded pKi (system: 5-hydroxytryptamine receptor 6 (Homo sapiens)) for O=S(=O)(c1ccccc1)c1ccc2c3c(oc2c1)CNCC3
8.57

# returns recorded pKi (system: 5-hydroxytryptamine receptor 6 (Homo sapiens)) for COCC1(C)NCCc2c1oc1cc(S(=O)(=O)c3cccc(F)c3)ccc21 (stereo unspecified)
7.74

# returns recorded pKi (system: 5-hydroxytryptamine receptor 6 (Homo sapiens)) for CC1(C)NCCc2c1oc1cc(S(=O)(=O)c3ccccc3)ccc21
8.11

# returns recorded pKi (system: 5-hydroxytryptamine receptor 6 (Homo sapiens)) for CC1(C(F)(F)F)NCCc2c1oc1cc(S(=O)(=O)c3cccc(F)c3)ccc21 (stereo unspecified)
6.86

# returns recorded pKi (system: 5-hydroxytryptamine receptor 6 (Homo sapiens)) for O=S(=O)(c1ccccc1)c1ccc2oc3c(c2c1)CCNC3
7.34
